Please go through the items and note down their viability, T/C.
tested on: 953936-095-R-J2-PDC spheroids with HUVEC/MSC, viability; assay: Anticancer human tumor 953936-095-R-J2-PDC patient-derived cervical squamous cell carcinoma cell line growth inhibition [PI3K]; settings: second compound 0.01 µM; first compound 3.16 µM; stronger effect = lower value;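 further: spheroids exposed to compounds for seven days before read-out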
One number for each entry, in %.

INPUT: Which measured viability, T/C value corresponds to Cn1ncc(Cl)c1-c1cc(C(=O)NC(CN)Cc2cccc(F)c2)sc1Cl (stereo not given) + CC(Nc1ccc2c(c1)OCCn1cc(N3C(=O)OCC3C(F)F)nc1-2)C(N)=O ?
OUTPUT: 17.7

INPUT: For the molecule C=CC(=O)N1CCN(c2nc(=O)n(-c3c(C)ccnc3C(C)C)c3nc(-c4c(O)cccc4F)c(F)cc23)C(C)C1 (stereo not given) + COc1c(OCCCN2CCOCC2)ccc2c3n(c(=NC(=O)c4cnc(N)nc4)nc12)CCN3 , what viability, T/C is on record?
OUTPUT: 89.9

INPUT: Recorded viability, T/C for CC(Cn1ccc(-c2ccc(C#N)c(Cl)c2)n1)NC(=O)c1cc(C(C)O)[nH]n1 (stereo not given) + CC(Nc1ccc2c(c1)OCCn1cc(N3C(=O)OCC3C(F)F)nc1-2)C(N)=O , please?
OUTPUT: 86.6

INPUT: Which viability, T/C is listed for CC1(C)CCC(Nc2ncc(C(F)(F)F)c(-c3c[nH]c4c(P(C)(C)=O)c(C#N)ccc34)n2)CN1 (stereo not given) + COc1c(OCCCN2CCOCC2)ccc2c3n(c(=NC(=O)c4cnc(N)nc4)nc12)CCN3 ?
OUTPUT: 44

INPUT: Return reported viability, T/C; argument: CCCS(=O)(=O)Nc1ccc(F)c(C(=O)c2c[nH]c3ncc(-c4ccc(Cl)cc4)cc23)c1F + CC(Nc1ccc2c(c1)OCCn1cc(N3C(=O)OCC3C(F)F)nc1-2)C(N)=O
OUTPUT: 77.1

Provide each entry's viability, T/C from the list below.
1. CC1(C)CCC(CN2CCN(c3ccc(C(=O)NS(=O)(=O)c4ccc(NCC5CCOCC5)c([N+](=O)[O-])c4)c(Oc4cnc5[nH]ccc5c4)c3)CC2)=C(c2ccc(Cl)cc2)C1 + COc1c(OCCCN2CCOCC2)ccc2c3n(c(=NC(=O)c4cnc(N)nc4)nc12)CCN3
2. CC1(C)CCC(Nc2ncc(C(F)(F)F)c(-c3c[nH]c4c(P(C)(C)=O)c(C#N)ccc34)n2)CN1 (stereo not given) + CC(Nc1ccc2c(c1)OCCn1cc(N3C(=O)OCC3C(F)F)nc1-2)C(N)=O
3. C[C@@H](NC(=O)c1ncnc(N)c1Cl)c1ncc(C(=O)Nc2cc(C(F)(F)F)c(Cl)cn2)s1 + COc1c(OCCCN2CCOCC2)ccc2c3n(c(=NC(=O)c4cnc(N)nc4)nc12)CCN3
4. C=CC(=O)N1CCN(c2nc(=O)n(-c3c(C)ccnc3C(C)C)c3nc(-c4c(O)cccc4F)c(F)cc23)C(C)C1 (stereo not given) + CC(Nc1ccc2c(c1)OCCn1cc(N3C(=O)OCC3C(F)F)nc1-2)C(N)=O
5. C#Cc1c(F)ccc2cc(O)cc(-c3ncc4c(N5CC6CCC(C5)N6)nc(OCC56CCCN5CC(F)C6)nc4c3F)c12 (stereo not given) + COc1c(OCCCN2CCOCC2)ccc2c3n(c(=NC(=O)c4cnc(N)nc4)nc12)CCN3

OUTPUT:
70.5
50.3
85.5
116
54.3
